Sourced from patent US6858638B2

Listed here: items and their measured inhibition at 10 µM.
Target: Aurora2 kinase (Homo sapiens)
Construct: A complete recombinant Aurora2 enzyme; His tag (N); made in house; host or cells: E. coli
Sequence (O14965 whole entry): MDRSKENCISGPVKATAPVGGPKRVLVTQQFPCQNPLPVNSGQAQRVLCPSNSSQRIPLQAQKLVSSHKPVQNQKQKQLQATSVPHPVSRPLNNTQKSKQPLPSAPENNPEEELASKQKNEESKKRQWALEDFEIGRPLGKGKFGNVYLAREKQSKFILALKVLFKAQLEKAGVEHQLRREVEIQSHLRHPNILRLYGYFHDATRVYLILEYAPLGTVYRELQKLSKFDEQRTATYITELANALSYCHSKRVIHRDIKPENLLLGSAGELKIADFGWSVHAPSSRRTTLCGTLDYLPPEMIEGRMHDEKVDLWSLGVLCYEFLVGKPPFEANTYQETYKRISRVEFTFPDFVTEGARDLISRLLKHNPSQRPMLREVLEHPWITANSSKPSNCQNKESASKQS
Test: Aurora2 kinase radioactivity scintillation assay using nickel chelate (NuMA substrate)
Type: biochemical
Conditions: 10 μM; read-out: Aurora2 % inhib at 10 μM
propertyName: inhibition at 10 µM (%)

1) O=S(=O)(Nc1ccc2[nH]nc(-c3ccccc3)c2c1)c1cccc2cccnc12 100
2) O=S(=O)(Nc1ccc2[nH]nc(-c3ccccc3)c2c1)c1cccc(-c2ccccc2)c1 38
3) Cc1cc(C)cc(-c2n[nH]c3ccc(NS(=O)(=O)c4ccccc4S(C)(=O)=O)cc23)c1 93
4) CS(=O)(=O)c1ccccc1S(=O)(=O)Nc1ccc2[nH]nc(-c3ccccc3)c2c1 97
5) CC(C)(C)c1ccc(S(=O)(=O)Nc2ccc3[nH]nc(-c4ccccc4)c3c2)cc1 27
6) O=S(=O)(Nc1ccc2[nH]nc(-c3ccccc3)c2c1)c1ccccc1OC(F)(F)F 100
7) COc1ccc(OC)c(S(=O)(=O)Nc2ccc3[nH]nc(-c4ccccc4)c3c2)c1 97
8) CS(=O)(=O)c1ccccc1S(=O)(=O)Nc1ccc2[nH]nc(-c3ccccc3N)c2c1 17
9) N#Cc1ccccc1S(=O)(=O)Nc1ccc2[nH]nc(-c3ccccc3)c2c1 100
10) CS(=O)(=O)c1ccccc1S(=O)(=O)Nc1ccc2[nH]nc(-c3ccc4c(c3)OCO4)c2c1 94
11) CS(=O)(=O)c1ccccc1S(=O)(=O)Nc1ccc2[nH]nc(-c3cccs3)c2c1 93
12) O=S(=O)(Nc1ccc2[nH]nc(-c3ccccc3)c2c1)c1cc(Cl)cc(Cl)c1 80
13) O=S(=O)(Nc1ccc2[nH]nc(-c3ccccc3)c2c1)c1ccc(F)c(F)c1 92
14) COC(=O)c1ccc(-c2n[nH]c3ccc(NS(=O)(=O)c4ccccc4S(C)(=O)=O)cc23)cc1 95
15) Cc1ccc(S(=O)(=O)Nc2ccc3[nH]nc(-c4ccccc4)c3c2)cc1 65
16) CS(=O)(=O)c1ccccc1S(=O)(=O)Nc1ccc2[nH]nc(-c3ccc(Oc4ccccc4)cc3)c2c1 59
17) Nc1n[nH]c2ccc(NS(=O)(=O)c3c(F)cccc3F)cc12 70
